Origin of the recorded values: patent US20250002563A1

target: RBDSARS-CoV-2 (SARS-CoV-2 S protein residues 319-539, C-terminal His-tag) (SARS-CoV-2, UniProt P0DTC2 319-539); experiment: ELISA
pIC50: −log10 of the molar value.
Field: pIC50. Provide a value for each of the binders that follow.

Binder: 5p-78 (VHH) VHH: HVQLVESGGGLVQAGGSLRLSCAAAARFSTSAMGWFRQAPGKEREFVAAVSWSNTNIHYADTVKGRFTISADTAKETVYLQMNSLKPDDTAVYYCAQGGWGLTQPIIVDYWGKGTQVTVSS
Val: > 8.00

Next binder, please.
Input: // fetch pIC50 given entry 4P-47 (VHH) VHH: HVQLVESGGGLVQAGGSLRLSCAADARFSTSAMGWFRQAPGKEREFVAAISWSGANTHYADTVKGRFTISTDTAKNTVYLQMNSLKPEDTAVYYCAQGGWGITQPISVDYWGKGTQVTVSS
Output: > 8.00
